tgt: GqinOBP10
Construct: full length 134 residues (405 bp); signal peptide removed; vector pCZN1, E. coli BL21 (DE3); His tag cut off with enterokinase; about 15 kDa
protocol text: fluorescence competitive binding with 1-NPN probe
assay context: 2 µM protein, 50 mM Tris-HCl pH 7.4; displacement of 1-NPN
result type: pKi
Scale: negative log10 of molar concentration, which is what pKi denotes.

OCCC(O)CO (centres unmarked) : 4.94

Given N#CC[C@H](N)C(=O)O , state its recorded pKi.
4.91

So what's the measured pKi for this one? NC1(C(=O)O)CC1
4.73

What does the data say about its pKi? Entry: NCC(O)c1ccccc1 (centres unmarked)
5.35

====

IC50 values, listed per item
tgt: GqinOBP10
Construct: full length 134 residues (405 bp); signal peptide removed; vector pCZN1, E. coli BL21 (DE3); His tag cut off with enterokinase; about 15 kDa
protocol text: fluorescence competitive binding with 1-NPN probe
assay context: 2 µM protein, 50 mM Tris-HCl pH 7.4; displacement of 1-NPN
Answer format: numeric, µM implied, no suffix.

OCCC(O)CO (centres unmarked) [1,2,4-butanetriol] : 11.7
OC1CCc2ccccc21 (centres unmarked) [1-Indanol] : 12
CC(CN)C(=O)O (centres unmarked) [3-Aminoisobutanoic acid] : 15
NC1(C(=O)O)CC1 [1-Aminocyclopropane-1-carboxylic acid] : 18.7
NCC(O)c1ccccc1 (centres unmarked) [2-Amino-1-phenylethanol] : 4.51
N#CC[C@H](N)C(=O)O [β-cyano-L-alanine] : 12.3
O=C1CCC(=O)CC1 [1,4-Cyclohexanedione] : 13.1

Let us examine a further case.
GqinOBP10 / IC50 / CCCCCCCC/C=C\CCCCCCCC(=O)OC(CO)CO [2-Oleoylglycerol] : value?
6

====

Recorded Ki values for a group of molecules are listed next.
tgt: GqinOBP10
Construct: full length 134 residues (405 bp); signal peptide removed; vector pCZN1, E. coli BL21 (DE3); His tag cut off with enterokinase; about 15 kDa
protocol text: fluorescence competitive binding with 1-NPN probe
assay context: 2 µM protein, 50 mM Tris-HCl pH 7.4; displacement of 1-NPN
Value expressed in µM; do not type the unit.

Example cases with answers are listed next.
CC(CN)C(=O)O (stereo not shown) : 14.9
CCCCCCCC/C=C\CCCCCCCC(=O)OC(CO)CO : 5.96
OC1CCc2ccccc21 (stereo not shown) : 11.9

Here is the next item to consider.
Form: Entry = O=C1CCC(=O)CC1 | System = GqinOBP10 | Ki = ____
13
